test_target: Peroxisome proliferator-activated receptor alpha (Homo sapiens)
Sequence (Q07869 whole entry): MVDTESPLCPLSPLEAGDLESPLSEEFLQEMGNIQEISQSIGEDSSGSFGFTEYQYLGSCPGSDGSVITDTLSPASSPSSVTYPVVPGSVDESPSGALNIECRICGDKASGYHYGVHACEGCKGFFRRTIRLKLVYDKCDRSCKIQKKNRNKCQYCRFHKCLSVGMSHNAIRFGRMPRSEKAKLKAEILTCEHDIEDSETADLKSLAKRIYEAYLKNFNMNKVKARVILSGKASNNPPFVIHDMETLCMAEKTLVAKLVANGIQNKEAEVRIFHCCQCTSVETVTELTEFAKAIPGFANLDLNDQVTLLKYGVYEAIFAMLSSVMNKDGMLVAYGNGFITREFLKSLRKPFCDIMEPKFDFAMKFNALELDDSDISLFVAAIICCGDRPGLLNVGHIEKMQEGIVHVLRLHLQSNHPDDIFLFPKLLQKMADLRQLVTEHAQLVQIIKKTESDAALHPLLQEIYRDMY
protocol_notes: Inhibition of human PPARalpha
pEC50: −log10 of the molar value.
outcome_measure: pEC50

## Task Find the measured pEC50 of "CC(=O)N1C[C@H](C(=O)Nc2ccc(C)cc2C)[C@@H](c2nnc([C@H]3C[C@@H](CC(C)C)C3)n2C2CC2)C1" and report it.
## Result < 4.70

* * *

test_target: Nuclear receptor ROR-beta (Homo sapiens, UniProt Q92753)
Sequence (Q92753 whole entry): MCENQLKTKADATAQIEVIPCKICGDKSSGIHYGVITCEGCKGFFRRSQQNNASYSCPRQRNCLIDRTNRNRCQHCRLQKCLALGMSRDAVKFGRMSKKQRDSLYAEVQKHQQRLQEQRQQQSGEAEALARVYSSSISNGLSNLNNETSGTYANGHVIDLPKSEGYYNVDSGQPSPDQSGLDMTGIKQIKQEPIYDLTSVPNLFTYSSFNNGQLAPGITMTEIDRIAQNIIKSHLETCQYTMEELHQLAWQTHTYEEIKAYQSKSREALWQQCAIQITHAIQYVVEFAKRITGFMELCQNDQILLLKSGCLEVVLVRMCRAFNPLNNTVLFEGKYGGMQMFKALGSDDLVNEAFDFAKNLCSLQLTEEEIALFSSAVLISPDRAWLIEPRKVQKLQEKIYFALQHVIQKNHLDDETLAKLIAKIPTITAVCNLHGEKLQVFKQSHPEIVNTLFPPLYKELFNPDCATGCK
protocol_notes: Inhibition of human RORbeta
outcome_measure: EC50

## Task Jot down EC50 (Nuclear receptor ROR-beta (Homo sapiens, UniProt Q92753)) of "CC(=O)N1C[C@H](C(=O)Nc2ccc(C)cc2C)[C@@H](c2nnc([C@H]3C[C@@H](CC(C)C)C3)n2C2CC2)C1" .
## Result > 20 µM
